Each entry below lists one item and its recorded Kd value.
- measured_on: T1, CDTb_(D1–D4) monomer (residues 43–876) (Clostridioides difficile, strain not …)
- T1 construct: also called full-length (pro) CDTb; pro-CDTb
- T1 chain: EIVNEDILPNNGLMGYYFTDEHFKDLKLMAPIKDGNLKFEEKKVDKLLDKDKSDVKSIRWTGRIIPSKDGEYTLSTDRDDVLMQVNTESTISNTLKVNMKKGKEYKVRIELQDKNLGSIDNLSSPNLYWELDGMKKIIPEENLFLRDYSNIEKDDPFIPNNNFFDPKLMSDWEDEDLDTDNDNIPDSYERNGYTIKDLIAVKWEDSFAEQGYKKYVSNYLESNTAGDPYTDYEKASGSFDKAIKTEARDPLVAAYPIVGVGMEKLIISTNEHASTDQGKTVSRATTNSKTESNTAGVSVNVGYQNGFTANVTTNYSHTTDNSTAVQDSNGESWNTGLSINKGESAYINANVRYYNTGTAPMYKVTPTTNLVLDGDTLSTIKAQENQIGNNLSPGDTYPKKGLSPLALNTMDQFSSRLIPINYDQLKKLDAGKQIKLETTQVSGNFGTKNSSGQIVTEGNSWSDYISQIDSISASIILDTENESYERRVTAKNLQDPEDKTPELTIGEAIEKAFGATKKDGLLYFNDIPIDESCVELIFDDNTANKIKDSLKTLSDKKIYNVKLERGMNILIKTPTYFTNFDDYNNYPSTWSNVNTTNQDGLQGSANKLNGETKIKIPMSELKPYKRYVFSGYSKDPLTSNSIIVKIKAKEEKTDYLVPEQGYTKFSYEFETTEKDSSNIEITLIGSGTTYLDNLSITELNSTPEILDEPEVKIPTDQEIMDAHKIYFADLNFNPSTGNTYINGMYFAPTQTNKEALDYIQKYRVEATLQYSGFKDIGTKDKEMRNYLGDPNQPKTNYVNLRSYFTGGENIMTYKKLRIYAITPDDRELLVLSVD
- assay: SPR; Carterra LSA^XT, SAHC30M chip, 25 °C; biotinylated Nbs captured at eight densities; CDTb constructs injected at 0.3–300 nM (fourfold dilutions) without regeneration; HBS-T (10 mM HEPES pH 7.4, 150 mM NaCl, 0.05% Tween-20) with 0.5 mg/ml BSA; one-to-one kinetics model
- condition_label: both partners purified
Could you give me the number in nM? Just the number is fine.

Guide cases for Kd, answers given:
What does the data say about its Kd? Entry: Nb C6 (VHH, also called C1C6; source: Expi293F, transfected, purified from supernatant (TALON resin)) VHH: QVQLQESGGGLVEPGGSLRLSCVASGIVVASSTMSWYRQAPGKQRELVAQIFSGGNTNYRDSVRGRFTISKDNAKNTAYLQMDNLEPDDTAVYYCYARGFWGQGTQVTVSS
0.018

What does the data say about its Kd? Entry: Nb H8 (VHH, also called C1H8; source: Expi293F, transfected, purified from supernatant (TALON resin)) VHH: QVQLQESGGGLVQPGRSLRLSCEASDFSLNTFGAGWFRQVPGKEREGVSCISPSNSSTYYADSVKGRFTISRDNAKNTIYLQMNSLKPEDTGVYFCAARPITSAQALCTLLVSDSFTSWGQGTQVTVSS
1.6

What does the data say about its Kd? Entry: Nb A9 (VHH, also called C1A9; source: Expi293F, transfected, purified from supernatant (TALON resin)) VHH: QVQLQESGGGLVQPGGSLRLSCTSSTNMLEFTAVAWWRQAPGKQRDLLAVITRAGVPNYADSKGRFAISRDNAKNTVDLLINTLEPDDTAVYTCNARTSGNINYWGQGTQVTVSS
0.024

Now for another entry.
What does the data say about its Kd? Entry: Nb H12 (VHH, also called C1H12; source: Expi293F, transfected, purified from supernatant (TALON resin)) VHH: QVQLQESGGGLVQPGGSLRLSCAASGDIFSFYTMGWYRQAPGKQRELVATITSPGTTNYADSVKGRFTISRDNAKNMVYLQMTSLKPEDTAVYYCNADRILTTDPQFKYWGQGTQVTVSS
0.05
